The values you see were collected from ChEMBL document CHEMBL1201862.

# System: MOLT-4
# PROTOCOL NOTES: NCI tumour cell line growth inhibition, 48 h
Activity calls are given as the source filed them. No stated cut-off is given here; in the data, active = GI50 up to about 1.1 µM and inactive = higher.
READOUT LABEL: GI50

GI50 of "CCN(CC)C(=S)SS(=O)(=O)c1cccc(N)c1" , assay on MOLT-4, is > 100 µM (inactive)

GI50 of "N#Cc1c(O)c(/C=N/c2ccc(Cl)cc2)c(=O)n2c1[nH]c1ccccc12" , assay on MOLT-4, is > 100 µM (inactive)

GI50 of "CC1(C)CC(=O)C(/C(=N/NC(=S)NN)C(=O)Nc2nc3ccc([N+](=O)[O-])cc3s2)C(=O)C1" , assay on MOLT-4, is 55.1 µM (inactive)

GI50 of "O=C(CC(=O)c1ccccc1)c1ccccc1.O=C(CC(=O)c1ccccc1)c1ccccc1.O=C(CC(=O)c1ccccc1)c1ccccc1.[SiH4]" , assay on MOLT-4, is 2.59 µM (inactive)

GI50 of "C(#CP(c1ccccc1)c1ccccc1)P(C#CP(c1ccccc1)c1ccccc1)c1ccccc1" , assay on MOLT-4, is > 100 µM (inactive)

GI50 of O=C1NC(=O)C2C(=O)NC(=O)C1C2(c1ccccc1)c1ccc(Cl)cc1 (centres undefined) , assay on MOLT-4, is > 100 µM (inactive)

GI50 of O/N=C1\CCCCC1C(NO)c1ccccc1 (centres undefined) , assay on MOLT-4, is 69.3 µM (inactive)

GI50 of "C=C1c2nc3ccccc3n2C=C(c2ccc(Cl)cc2)N1c1ccc(OCCN2CCCCC2)cc1" , assay on MOLT-4, is > 45 µM (inactive)

GI50 of "Cc1ccc(Nc2cccc3c2C(=O)c2cccc(Nc4ccc(C)cc4S(=O)(=O)O)c2C3=O)c(S(=O)(=O)O)c1" , assay on MOLT-4, is > 100 µM (inactive)

###

For each entry below, report its GI50 value.
# Test system: HOP-92
# PROTOCOL NOTES: NCI tumour cell line growth inhibition, 48 h
Activity calls are given as the source filed them. No stated cut-off is given here; in the data, active = GI50 up to about 1.1 µM and inactive = higher.

Recorded result, CN(C)c1cccc2c1C(=O)C=CC21c2ccc(N(C)C)c3c(N(C)C)ccc(c23)C(c2ccccc2)C1c1ccccc1 (stereo not drawn) , GI50: 8.73 µM (inactive)

Recorded result, "Nc1nc(N)c(C2=CCNCC2)c(=O)[nH]1" , GI50: > 100 µM (inactive)

Recorded result, CCOC(=O)NC1CC2CCC1(OC)C=C2C (stereo not drawn) , GI50: > 100 µM (inactive)

Recorded result, "Cn1c(=O)c2c(nc3n2CCCC(=O)N3CCCCl)n(C)c1=O" , GI50: > 100 µM (inactive)

Recorded result, COc1ncnc2c(NC3OC(CO)C(O)C3O)ncnc12 (stereo not drawn) , GI50: 0.0156 µM (active)

Recorded result, "COC(=O)C1=C(C)NC(C)=C(C(=O)OC)C1c1cccc(/[N+]([O-])=C/c2ccccc2)c1" , GI50: 23.4 µM (inactive)

Recorded result, CCCCCCCC(=O)OCC(C[As](=O)(O)O)OC(=O)CCCCCCC (stereo not drawn) , GI50: 12.7 µM (inactive)

Recorded result, "O=C(O)c1ccccc1-c1ccccc1C(=O)Nc1ccc2c(c1)Cc1ccccc1-2" , GI50: 46.8 µM (inactive)

Recorded result, "Cc1c[nH]c2c(O)cc3c(c12)[C@H](CCl)CN3C(=O)c1cc2cc(NC(=O)Nc3ccc4[nH]c(C(=O)N5C[C@@H](CCl)c6c5cc(O)c5[nH]cc(C)c65)cc4c3)ccc2[nH]1" , GI50: 48.5 µM (inactive)

Recorded result, "O=C(c1ccccc1)c1c(C(F)(F)F)[n+]([O-])c2cc(Cl)c(Cl)cc2[n+]1[O-]" , GI50: 7.01 µM (inactive)

Recorded result, "N#Cc1ccccc1NC(=O)C(=O)c1c(O)c2ccccc2oc1=O" , GI50: > 100 µM (inactive)

Recorded result, "C/C(CC(=O)Nc1ccc(NC(=O)/C(C)=N/NS(=O)(=O)c2ccc(C)cc2)cc1)=N\NS(=O)(=O)c1ccc(C)cc1" , GI50: > 100 µM (inactive)

Recorded result, "CCOC(=O)c1cc2c(ccc3cc(C(=O)OCC)[nH]c32)[nH]1" , GI50: 78.7 µM (inactive)

Recorded result, "CC1=CC(C)(C)N=C2SC(c3ccc(N)cc3)=NN12" , GI50: 51.8 µM (inactive)

Recorded result, "O=S(=O)(O)c1cc(/N=[N+](\[O-])c2cc(S(=O)(=O)O)c3ccccc3c2)cc2ccccc12" , GI50: > 100 µM (inactive)

Recorded result, COc1ccc(N2C(=O)/C(=C\c3ccccc3)SC2c2cc(OC)c(OC)c(OC)c2)cc1 (stereo not drawn) , GI50: > 100 µM (inactive)

Recorded result, CCCCCCCCCCCCCCCCCCNc1ccn(C2OC(COP(=O)(O)OCCCCCCCCCCCCCCCC)C(O)C2O)c(=O)n1 (stereo not drawn) , GI50: > 100 µM (inactive)

Recorded result, CC1(C)CCC2(C(=O)OC3OC(CO)C(O)C(O)C3O)CCC3(CO)C(=CCC4C5(C)CC(O)C(O)C(C)(C(=O)OC6OC(CO)C(O)C(O)C6O)C5CCC43C)C2C1 (stereo not drawn) , GI50: > 100 µM (inactive)

###

# Tested on: SK-MEL-5
# PROTOCOL NOTES: NCI tumour cell line growth inhibition, 48 h
Active and inactive are the calls of the source. No stated cut-off is given here; in the data, active = GI50 up to about 1.1 µM and inactive = higher. Where a SMILES comes first, the peptide text is derived from it. The star is where a group is joined. Boc = CC(C)(C)OC(=O)*; Bn = c1ccc(C*)cc1
READOUT LABEL: GI50

Recorded result, Cc1ccc(S(=O)(=O)C2=Cc3ccccc3C2(O)c2ccccc2)cc1 (centres undefined) , GI50: 16.6 µM (inactive)

Recorded result, "CC(C)(C)OC(=O)Cn1ncn(NC(=O)Cc2ccccc2)c1=O" , GI50: > 10 µM (inactive)

Recorded result, COC(=O)C(CC(C)C)NC(=O)C(C)NC(=O)C(Cc1ccc(OCc2ccccc2)cc1)NC(=O)C(COCc1ccccc1)NC(=O)OC(C)(C)C (centres undefined) (Boc-S(Bn)Y(Bn)AL-OMe; configuration not given here) , GI50: > 100 µM (inactive)

Recorded result, "O=S1OC(c2ccccc2)(c2ccccc2)C(c2ccccc2)(c2ccccc2)O1" , GI50: 15.4 µM (inactive)

###

# Test system: 786-0
# PROTOCOL NOTES: NCI tumour cell line growth inhibition, 48 h
Active and inactive are the calls of the source. Rule as the data show it: active = GI50 up to about 1.1 µM and inactive = higher.
For each entry below, report its GI50 value.

Recorded result, "COc1c(O)cc2c(c1O)C(=O)/C(=C/c1ccc(O)cc1)CO2" , GI50: 30.8 µM (inactive)

Recorded result, OC1(c2ccccc2)CSC2=Nc3ccccc3C3CCN1N23 (stereo unspecified) , GI50: 18.7 µM (inactive)

Recorded result, "Cn1c(=O)c2c(ncn2CN2CCN(Cn3cnc4c3c(=O)n(C)c(=O)n4C)CC2)n(C)c1=O" , GI50: 29 µM (inactive)

Recorded result, "N/C(=N\c1cccc(Cl)c1)c1ccccc1N" , GI50: > 100 µM (inactive)

Recorded result, "CCOC(=O)N(C)C(=C(F)F)C(F)(F)F" , GI50: 21.7 µM (inactive)

Recorded result, O=C(C/C(=N\NC(=O)C[n+]1ccccc1)C(=O)Nc1nc2ccc([N+](=O)[O-])cc2s1)CC(c1ccccc1)c1c(O)c2ccccc2oc1=O (stereo unspecified) , GI50: > 100 µM (inactive)

Recorded result, "COC1(OC)CC(CO)(CNc2cc(Cl)nc(N)n2)C1" , GI50: > 100 µM (inactive)

Recorded result, CC(=O)OCC1OC(n2c(=O)n(-c3ccccc3)c(=O)c3cc(Br)cc(Br)c32)C(OC(C)=O)C(OC(C)=O)C1OC(C)=O (stereo unspecified) , GI50: > 100 µM (inactive)

Recorded result, "Cc1nc(=O)n2c(C)n[nH]c2c1C(=O)O" , GI50: > 100 µM (inactive)

Recorded result, Cc1cn(CC2=NCC(O)CN2)c(=O)[nH]c1=O (stereo unspecified) , GI50: > 100 µM (inactive)

Recorded result, CC1C(=O)O[B-]2(c3ccccc3)Oc3ccccc3C=[N+]12 (stereo unspecified) , GI50: > 100 µM (inactive)

Recorded result, Cc1ccc2c(c1)C(=O)C1(C2)Cc2cccc(C)c2C1=O (stereo unspecified) , GI50: > 100 µM (inactive)

Recorded result, "CCOC(=O)c1c(N)n(-c2ccccc2)c(=S)n(-c2ccccc2)c1=O" , GI50: > 100 µM (inactive)

Recorded result, "C=CCN1C(=O)CC(=O)N(NC2=NNC3(C(=O)N2)c2ccccc2-c2ccccc23)C1=S" , GI50: 38.5 µM (inactive)

Recorded result, "CS/C(c1ccccc1)=[N+](/C)[O-]" , GI50: > 100 µM (inactive)

Recorded result, "N[C@@H]1C[C@H](N)c2c(Cl)sc(Cl)c21" , GI50: > 100 µM (inactive)

Recorded result, "CN(C)CCCNC(=O)CCNC(=O)c1cc(NC(=O)c2cc(NC(=O)c3cc(NC(=O)c4nccn4C)cn3C)cn2C)cn1C" , GI50: > 100 µM (inactive)

Recorded result, "NC(=O)/C=C/NC(=O)/C=N\O" , GI50: > 100 µM (inactive)

Recorded result, "N=C(N)SCc1ccc(Cl)cc1Cl.O=[N+]([O-])c1c(O)c(Cl)cc(Cl)c1Cl" , GI50: 11.7 µM (inactive)

Recorded result, C=C1C(=O)C23C(O)CC4C5(C)CCCC4(C(O)OC5)C2C(OC(C)=O)CC1C3O (stereo unspecified) , GI50: 6.31 µM (inactive)

Recorded result, CCc1cc2c(c3c1CCCC3)CC1(Cc3ccc(C(=O)OC)cc3C1)C2 (stereo unspecified) , GI50: > 100 µM (inactive)
